Test system: broad panel of different clinical isolates
Assay: microbe, parasite or virus in culture
Assay type: cell-based
Conditions: Escherichia coli, E. coli HAV#513; Clinical
Procedure: Minimum inhibitory concentrations (MICs) were determined by broth microdilution method or agar dilution method following the Clinical and Laboratory Standards Institute guidelines. Standard bacterial strains were obtained from American Type Culture Collection (ATCC). Other bacterial strains were obtained from hospitals and commercial sources, so noted in Table 11. […] Specialized procedures were employed for streptococcal and anaerobic strains. […]
measured-attribute: MIC (µg/mL)

compound	measured-attribute	lt-gt-eq	number
C[C@H]1COc2c(N3CCN(C)CC3)c(F)cc3c(=O)c(C(=O)O)cn1c23	MIC	=	2
CCC[C@@H]1C[C@@H](C(=O)N[C@@H]([C@H]2O[C@H](SC)[C@H](O)[C@@H](O)[C@H]2O)[C@H](C)Cl)N(C)C1 [Clindamycin, clindamycin, reference compound]	MIC	>	128
CSC1O[C@H]([C@H](NC(=O)[C@H]2NC[C@@H]3C[C@H](CC(C)C)CCO[C@H]32)[C@H](C)Cl)C(O)[C@@H](O)[C@H]1O (some centres unmarked) [FSA-513018b]	MIC	=	16
CO/N=C(\C(=O)N[C@@H]1C(=O)N2C(C(=O)O)=C(CSc3nc(=O)c(=O)[nH]n3C)CS[C@H]12)c1csc(N)n1	MIC	=	0.125
CN[C@H](CC(C)C)C(=O)N[C@H]1C(=O)N[C@@H](CC(N)=O)C(=O)N[C@H]2C(=O)N[C@H]3C(=O)N[C@H](C(=O)N[C@H](C(=O)O)c4cc(O)cc(O)c4-c4cc3ccc4O)[C@H](O)c3ccc(c(Cl)c3)Oc3cc2cc(c3O[C@@H]2O[C@H](CO)[C@@H](O)[C@H](O)[C@H]2O[C@H]2C[C@](C)(N)[C@H](O)[C@H](C)O2)Oc2ccc(cc2Cl)[C@H]1O	MIC	>	128
CC[C@H]1OC(=O)[C@H](C)[C@@H](O[C@H]2C[C@@](C)(OC)[C@@H](O)[C@H](C)O2)[C@H](C)[C@@H](O[C@@H]2O[C@H](C)C[C@H](N(C)C)[C@H]2O)[C@](C)(O)C[C@@H](C)CN(C)[C@H](C)[C@@H](O)[C@]1(C)O	MIC	=	8
CC(=O)NC[C@H]1CN(c2ccc(N3CCOCC3)c(F)c2)C(=O)O1	MIC	=	32
C[C@H]1c2cccc(O)c2C(=O)C2=C(O)[C@]3(O)C(=O)C(C(N)=O)=C(O)[C@@H](N(C)C)[C@@H]3[C@@H](O)[C@@H]21	MIC	=	32

----------
System: broad panel of different clinical isolates
Assay: microbe, parasite or virus in culture
Type: cell-based
Settings: Enterococcus faecalis, E. faecalis HAV#609; Clinical
Recorded MIC values for a group of compounds are listed next.

compound	reading-unit	lt-gt-eq	MIC
CSC1O[C@H]([C@H](NC(=O)[C@H]2NC[C@@H]3C[C@H](CC(C)C)CCO[C@H]32)[C@H](C)Cl)C(O)[C@@H](O)[C@H]1O (stereo partly shown) [FSA-513018b]	µg/mL	=	2
C[C@H]1COc2c(N3CCN(C)CC3)c(F)cc3c(=O)c(C(=O)O)cn1c23 [Levofloxacin]	µg/mL	=	32
C[C@H]1c2cccc(O)c2C(=O)C2=C(O)[C@]3(O)C(=O)C(C(N)=O)=C(O)[C@@H](N(C)C)[C@@H]3[C@@H](O)[C@@H]21 [Doxycycline]	µg/mL	=	8
CN[C@H](CC(C)C)C(=O)N[C@H]1C(=O)N[C@@H](CC(N)=O)C(=O)N[C@H]2C(=O)N[C@H]3C(=O)N[C@H](C(=O)N[C@H](C(=O)O)c4cc(O)cc(O)c4-c4cc3ccc4O)[C@H](O)c3ccc(c(Cl)c3)Oc3cc2cc(c3O[C@@H]2O[C@H](CO)[C@@H](O)[C@H](O)[C@H]2O[C@H]2C[C@](C)(N)[C@H](O)[C@H](C)O2)Oc2ccc(cc2Cl)[C@H]1O [Vancomycin]	µg/mL	=	32
CC(=O)NC[C@H]1CN(c2ccc(N3CCOCC3)c(F)c2)C(=O)O1 [Linezolid]	µg/mL	=	4
CC[C@H]1OC(=O)[C@H](C)[C@@H](O[C@H]2C[C@@](C)(OC)[C@@H](O)[C@H](C)O2)[C@H](C)[C@@H](O[C@@H]2O[C@H](C)C[C@H](N(C)C)[C@H]2O)[C@](C)(O)C[C@@H](C)CN(C)[C@H](C)[C@@H](O)[C@]1(C)O [Azithromycin]	µg/mL	>	128
CO/N=C(\C(=O)N[C@@H]1C(=O)N2C(C(=O)O)=C(CSc3nc(=O)c(=O)[nH]n3C)CS[C@H]12)c1csc(N)n1 [Ceftriaxone]	µg/mL	>	256

----------
In this section, each of the compounds is paired with its reported MIC.
Tested on: broad panel of different clinical isolates
Assay: microbe, parasite or virus in culture
Format: cell-based
Conditions: Staphylococcus epidermidis, S. epidermidis HAV#278 Line R

compound	lt-gt-eq	MIC, µg/mL
CC[C@H]1OC(=O)[C@H](C)[C@@H](O[C@H]2C[C@@](C)(OC)[C@@H](O)[C@H](C)O2)[C@H](C)[C@@H](O[C@@H]2O[C@H](C)C[C@H](N(C)C)[C@H]2O)[C@](C)(O)C[C@@H](C)CN(C)[C@H](C)[C@@H](O)[C@]1(C)O [Azithromycin]	>	64
C[C@H]1COc2c(N3CCN(C)CC3)c(F)cc3c(=O)c(C(=O)O)cn1c23 [Levofloxacin]	=	16
CC(=O)NC[C@H]1CN(c2ccc(N3CCOCC3)c(F)c2)C(=O)O1 [Linezolid]	=	64

----------
As shown below, each of these compounds has a reported MIC value.
Test system: broad panel of different clinical isolates
Experiment: microbe, parasite or virus in culture
Format: cell-based
Details: Enterococcus faecium, E. faecium HAV#329; Clinical

compound	reading-unit	lt-gt-eq	MIC
CC[C@H]1OC(=O)[C@H](C)[C@@H](O[C@H]2C[C@@](C)(OC)[C@@H](O)[C@H](C)O2)[C@H](C)[C@@H](O[C@@H]2O[C@H](C)C[C@H](N(C)C)[C@H]2O)[C@](C)(O)C[C@@H](C)CN(C)[C@H](C)[C@@H](O)[C@]1(C)O	µg/mL	>	128
CN[C@H](CC(C)C)C(=O)N[C@H]1C(=O)N[C@@H](CC(N)=O)C(=O)N[C@H]2C(=O)N[C@H]3C(=O)N[C@H](C(=O)N[C@H](C(=O)O)c4cc(O)cc(O)c4-c4cc3ccc4O)[C@H](O)c3ccc(c(Cl)c3)Oc3cc2cc(c3O[C@@H]2O[C@H](CO)[C@@H](O)[C@H](O)[C@H]2O[C@H]2C[C@](C)(N)[C@H](O)[C@H](C)O2)Oc2ccc(cc2Cl)[C@H]1O	µg/mL	>	128
CO/N=C(\C(=O)N[C@@H]1C(=O)N2C(C(=O)O)=C(CSc3nc(=O)c(=O)[nH]n3C)CS[C@H]12)c1csc(N)n1	µg/mL	>	256
CC(=O)NC[C@H]1CN(c2ccc(N3CCOCC3)c(F)c2)C(=O)O1	µg/mL	=	4
C[C@H]1COc2c(N3CCN(C)CC3)c(F)cc3c(=O)c(C(=O)O)cn1c23	µg/mL	=	128
CSC1O[C@H]([C@H](NC(=O)[C@H]2NC[C@@H]3C[C@H](CC(C)C)CCO[C@H]32)[C@H](C)Cl)C(O)[C@@H](O)[C@H]1O (stereo partly shown) [FSA-513018b]	µg/mL	=	1
C[C@H]1c2cccc(O)c2C(=O)C2=C(O)[C@]3(O)C(=O)C(C(N)=O)=C(O)[C@@H](N(C)C)[C@@H]3[C@@H](O)[C@@H]21	µg/mL	=	0.25

----------
Test system: broad panel of different clinical isolates
Test: microbe, parasite or virus in culture
Type: cell-based
Conditions: Staphylococcus aureus, S. aureus HAV#214; Clinical
Hi! Just check whether MIC is below 0.2 µg/mL. Below gives Yes, equal or above gives No.

molecule	tested-target	group
CC(=O)NC[C@H]1CN(c2ccc(N3CCOCC3)c(F)c2)C(=O)O1	broad panel of different clinical isolates	No
C[C@H]1c2cccc(O)c2C(=O)C2=C(O)[C@]3(O)C(=O)C(C(N)=O)=C(O)[C@@H](N(C)C)[C@@H]3[C@@H](O)[C@@H]21	broad panel of different clinical isolates	No
C[C@H]1COc2c(N3CCN(C)CC3)c(F)cc3c(=O)c(C(=O)O)cn1c23	broad panel of different clinical isolates	No
CCC[C@@H]1C[C@@H](C(=O)N[C@@H]([C@H]2O[C@H](SC)[C@H](O)[C@@H](O)[C@H]2O)[C@H](C)Cl)N(C)C1 [Clindamycin, clindamycin, reference compound]	broad panel of different clinical isolates	Yes
CC[C@H]1OC(=O)[C@H](C)[C@@H](O[C@H]2C[C@@](C)(OC)[C@@H](O)[C@H](C)O2)[C@H](C)[C@@H](O[C@@H]2O[C@H](C)C[C@H](N(C)C)[C@H]2O)[C@](C)(O)C[C@@H](C)CN(C)[C@H](C)[C@@H](O)[C@]1(C)O	broad panel of different clinical isolates	No
CN[C@H](CC(C)C)C(=O)N[C@H]1C(=O)N[C@@H](CC(N)=O)C(=O)N[C@H]2C(=O)N[C@H]3C(=O)N[C@H](C(=O)N[C@H](C(=O)O)c4cc(O)cc(O)c4-c4cc3ccc4O)[C@H](O)c3ccc(c(Cl)c3)Oc3cc2cc(c3O[C@@H]2O[C@H](CO)[C@@H](O)[C@H](O)[C@H]2O[C@H]2C[C@](C)(N)[C@H](O)[C@H](C)O2)Oc2ccc(cc2Cl)[C@H]1O	broad panel of different clinical isolates	No
CO/N=C(\C(=O)N[C@@H]1C(=O)N2C(C(=O)O)=C(CSc3nc(=O)c(=O)[nH]n3C)CS[C@H]12)c1csc(N)n1	broad panel of different clinical isolates	No
CSC1O[C@H]([C@H](NC(=O)[C@H]2NC[C@@H]3C[C@H](CC(C)C)CCO[C@H]32)[C@H](C)Cl)C(O)[C@@H](O)[C@H]1O (some centres unmarked) [FSA-513018b]	broad panel of different clinical isolates	Yes
